Assay: NCI Yeast Anticancer Drug Screen. Data for the bub3 strain (AID 167)
Settings: S. cerevisiae bub3 mutant strain, at 50.0 µM (retest, dose inferred, filed as 5.0), hits give high values
Method: Growth inhibition of yeast strains with defined genetic alterations is measured as a screen for potential anti-cancer activity. Selected strains with alterations in DNA damage repair or cell cycle control were exposed to compounds and growth inhibition was measured relative to vehicle treated controls. The strain used in this assay is bub3
The panel holds about 79,000 compounds, 15% with a hit somewhere; the sample as a whole holds those more often. Activity calls are given as the source filed them. Rule as the data show it: active = growth inhibition above about 70%; inactive = the rest.
measured attribute: growth inhibition

[
  {
    "molecule": "CN1C(=O)c2cccc3c([N+](=O)[O-])ccc(c23)C1=O",
    "measured attribute": "growth inhibition",
    "result": "80% (active)"
  },
  {
    "molecule": "Cc1cc[n+](C2CCC3(C)C(=CCC4C3CCC3(C)C(C(C)CCCC(C)C)CCC43)C2)cc1 (stereo unspecified)",
    "measured attribute": "growth inhibition",
    "result": "97% (active)"
  },
  {
    "molecule": "Cn1c2c(c3ccccc31)CCN(CCCN1CCN(c3ccccc3)CC1)C2=O",
    "measured attribute": "growth inhibition",
    "result": "51% (inactive)"
  },
  {
    "molecule": "N#Cc1cn(-c2c3ccccc3nc3ccccc23)c(=O)[nH]c1=O",
    "measured attribute": "growth inhibition",
    "result": "59% (inactive)"
  },
  {
    "molecule": "c1ccc(-n2ncc3ccc4cccn4c32)cc1",
    "measured attribute": "growth inhibition",
    "result": "16% (inactive)"
  },
  {
    "molecule": "CC(C)(C)c1cc(C2c3cc4c(cc3OC(O)(CO)C2C(=O)O)OCO4)cc(C(C)(C)C)c1O (stereo unspecified) (tested in a mixture with another compound)",
    "measured attribute": "growth inhibition",
    "result": "63% (inactive)"
  },
  {
    "molecule": "CCCCCCCCCCC[N+](C)(C)CCCCCC[N+](C)(C)CCCCCCCCCCC",
    "measured attribute": "growth inhibition",
    "result": "100% (active)"
  },
  {
    "molecule": "Nc1ccc2c(c1)CCc1ccccc1-2",
    "measured attribute": "growth inhibition",
    "result": "65% (inactive)"
  }
]

Input line: Request the reported growth inhibition associated with Cc1ccc(C(=O)N2CCN(C(=O)c3ccc(C)cc3)c3ccccc32)cc1
Output line: 43% (inactive)

Input line: Request the reported growth inhibition associated with S=C(S)NCCN1CCNCC1
Output line: -11% (inactive)

Input line: Request the reported growth inhibition associated with CCN(CC)C(=S)N/N=C(/c1ccccc1)c1ccccn1
Output line: 96% (active)

Input line: Request the reported growth inhibition associated with O=C(Nc1ccc(Br)cc1)c1c(-c2ccccc2)c2ccc(O)cc2oc1=O
Output line: 96% (active)

Input line: Request the reported growth inhibition associated with O=C(OC12CCCCC1CCCC2)c1ccc([N+](=O)[O-])cc1 (stereo unspecified)
Output line: 99% (active)

Input line: Request the reported growth inhibition associated with O=C1/C(=C/c2ccccc2)CN(C(=O)CCN2CCCC2)C/C1=C\c1ccccc1
Output line: 96% (active)

Input line: Request the reported growth inhibition associated with COC12C(COC(N)=O)C3=C(C(=O)C(C)=C(N)C3=O)N1CC1C2N1C(=O)c1ccc(Cl)cc1 (stereo unspecified)
Output line: 50% (inactive)

Input line: Request the reported growth inhibition associated with CCN(CC)CCC(=O)OC1C(C)=CC(C)C(=O)CC(C(C)CC2CCC(O)C(OC)C2)OC(=O)C2CCCCN2C(=O)C(=O)[C@@]2(O)OC(CCC2C)CC(OC)\C(C)=C/C=C/C=C/C(C)CC(C)C(=O)C1OC (stereo partly specified)
Output line: 98% (active)

Input line: Request the reported growth inhibition associated with Fc1cccc2c1cc1ccc3cccc4ccc2c1c34
Output line: -6% (inactive)

Input line: Request the reported growth inhibition associated with CN(C(=O)c1ccccc1)C1(COC(=O)c2ccccc2)CCCCC1
Output line: 28% (inactive)

Input line: Request the reported growth inhibition associated with N#Cc1ccc([N+](=O)[O-])cc1C#N
Output line: 98% (active)

Input line: Request the reported growth inhibition associated with Cc1nc(C(N)=S)sc1C(=O)C/C(=N/N)C(=O)Nc1cccc(Cl)c1C
Output line: 23% (inactive)

Input line: Request the reported growth inhibition associated with CCc1c(-c2ccccc2)c(CN2CCCCC2)c2ccccn12
Output line: 26% (inactive)

* * *

Measured growth inhibition values are reported for all entries that follow.
Assay: NCI Yeast Anticancer Drug Screen. Data for the bub3 strain (AID 167)
Details: S. cerevisiae bub3 mutant strain, at 5.0 µM (retest, dose inferred, filed as 0.5), hits give high values
Protocol: Growth inhibition of yeast strains with defined genetic alterations is measured as a screen for potential anti-cancer activity. Selected strains with alterations in DNA damage repair or cell cycle control were exposed to compounds and growth inhibition was measured relative to vehicle treated controls. The strain used in this assay is bub3
The panel holds about 79,000 compounds, 15% with a hit somewhere; the sample as a whole holds those more often.
Return type: number; implicit unit %.

Input line: Request the reported growth inhibition associated with N#CI1OC(C(F)(F)F)(C(F)(F)F)c2ccccc21
Output line: 91

Input line: Request the reported growth inhibition associated with N=C(N)SC1c2ccccc2-c2ccc(N)cc21 (stereo not given)
Output line: 0

* * *

experiment: NCI Yeast Anticancer Drug Screen. Data for the mec2-1 strain (AID 157); details: S. cerevisiae mec2-1 strain, at 50.0 µM, hits give high values
Compounds without any hit were thinned out: in the full panel of roughly 79,000, 15% have a hit. Activity calls are given as the source filed them. No stated cut-off is given here; in the data, active means growth inhibition above about 70%; inactive means the rest.
measured attribute: growth inhibition

Input line: Request the reported growth inhibition associated with Cc1nc(C(N)=S)sc1C(=O)CC(=O)C(=O)Nc1nc2ccccc2[nH]1
Output line: 23.1% (inactive)

Input line: Request the reported growth inhibition associated with O=[N+]([O-])C1CCC(C2=CSC3CCCCC3N2)CC1 (stereo not given)
Output line: 57.5% (inactive)

Input line: Request the reported growth inhibition associated with Sc1ccccc1C1N(Cc2ccc(Cl)cc2)CCCN1Cc1ccc(Cl)cc1
Output line: 55.6% (inactive)

Input line: Request the reported growth inhibition associated with O=C(NCc1ccccc1)C1C(=O)N(Cc2ccccc2)C(=O)/C1=N/O (stereo not given)
Output line: 16.8% (inactive)

Input line: Request the reported growth inhibition associated with O=C1Nc2ccc([N+](=O)[O-])c3c([N+](=O)[O-])ccc1c23
Output line: 47.4% (inactive)

* * *

assay: NCI Yeast Anticancer Drug Screen. Data for the cln2 rad14 strain (AID 165);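 also: 0% = growth equal to vehicle treated cultures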; conditions: S. cerevisiae cln2 rad14 strain, at 50.0 µM (retest, dose inferred, filed as 5.0), hits give high values
This is part of a sample that, as a whole, favours compounds with a hit. Of some 79,000 tested, about 15% had one in any assay.
Output true for growth inhibition not less than 70%; output false otherwise.

Use the examples below as a reference point.
[
  {
    "compound": "Cc1cccc[n+]1CC(=O)c1cccc(O)c1",
    "classification": "false"
  },
  {
    "compound": "COC1=Nc2ccccc2S(=O)(=O)C=C1",
    "classification": "true"
  }
]

Input line: Does the reported growth inhibition for Cc1[nH]nc(C(=O)N(C)C)c1N=NN(C)C fall at or above the 70% mark?
Output line: true

Input line: Does the reported growth inhibition for CCN(CC)CC(O)c1c(-c2ccccc2)c(-c2ccccc2)c2n1CCC2 (configuration not stated) fall at or above the 70% mark?
Output line: false

Input line: Does the reported growth inhibition for CC(C)CC(NC(=O)SCc1ccccc1)C(=O)O (configuration not stated) fall at or above the 70% mark?
Output line: false

Input line: Does the reported growth inhibition for N#CC(CC(=O)O)C(c1cccc2ccccc12)c1cccc2ccccc12 (configuration not stated) fall at or above the 70% mark?
Output line: true

* * *

experiment: NCI Yeast Anticancer Drug Screen. Data for the mlh1 rad18 strain (AID 175); settings: S. cerevisiae mlh1 rad18 strain growth inhibition; at 50.0 µM (retest, dose inferred, filed as 5.0); hits give high values
The panel holds about 79,000 compounds, 15% with a hit somewhere; the sample as a whole holds those more often. Where a SMILES comes first, the peptide text is derived from it. The star is where a group is joined. Trt = c1ccc(C(c2ccccc2)(c2ccccc2)*)cc1; Cbz = O=C(OCc1ccccc1)*
Output 1 (yes) for growth inhibition not less than 70%; output 0 (no) otherwise.

[
  {
    "compound": "COC1CCCCC1C(=O)C(C#N)C1CCCCC1C1CCCCC1 (stereo unspecified)",
    "classification": "0 (no)"
  }
]

Input line: Does the reported growth inhibition for O=C(C1=Cc2ccccc2OC1)N1CCN(c2cccc(Cl)c2)CC1 fall at or above the 70% mark?
Output line: 1 (yes)

Input line: Does the reported growth inhibition for CC1(C)OC2C(COC(c3ccccc3)(c3ccccc3)c3ccccc3)OC(n3cnc4c(N)ncnc43)C2O1 (stereo unspecified) fall at or above the 70% mark?
Output line: 1 (yes)

Input line: Does the reported growth inhibition for Oc1c(Cl)cc(Cl)cc1C=Nc1cc(C(F)(F)F)ccc1Cl fall at or above the 70% mark?
Output line: 1 (yes)

Input line: Does the reported growth inhibition for O=C1c2ccccc2C(=O)c2c1ccc(O)c2O.[Cu] fall at or above the 70% mark?
Output line: 1 (yes)

Input line: Does the reported growth inhibition for CC(C)(Br)C(=O)c1ccc([N+](=O)[O-])o1 fall at or above the 70% mark?
Output line: 1 (yes)

Input line: Does the reported growth inhibition for CCC(=O)Oc1c(Br)c(Br)c(Br)c(Br)c1Br fall at or above the 70% mark?
Output line: 1 (yes)

Input line: Does the reported growth inhibition for COc1ccc(/C=C2\NC(=O)NC2=O)cc1 fall at or above the 70% mark?
Output line: 0 (no)

Input line: Does the reported growth inhibition for CCOC(=O)CCC(NC(=O)C(CSC(c1ccccc1)(c1ccccc1)c1ccccc1)NC(=O)OCc1ccccc1)C(=O)NC(CCC(=O)OCC)C(=O)NC(CCC(=O)OCC)C(=O)NC(CCC(=O)OCC)C(=O)NC(CSC(c1ccccc1)(c1ccccc1)c1ccccc1)C(=O)OC (stereo unspecified) (Cbz-C(Trt)E(OEt)E(OEt)E(OEt)E(OEt)C(Trt)-OMe; configuration not given here) fall at or above the 70% mark?
Output line: 1 (yes)

Input line: Does the reported growth inhibition for Cc1cc(C)c(S(=O)(=O)n2ccnc2)c(C)c1 fall at or above the 70% mark?
Output line: 0 (no)

Input line: Does the reported growth inhibition for COc1ccc2cc(C(=O)CCCC(C)C(=O)O)ccc2c1 (stereo unspecified) fall at or above the 70% mark?
Output line: 0 (no)

Input line: Does the reported growth inhibition for Cc1ccc(C)c([N+](=O)[O-])c1 fall at or above the 70% mark?
Output line: 0 (no)
